assay: Determination of LC Log P (experimental); assay type: physicochemical; details: from LC retention time against log P standards; read-out: LC LogP (exp)
For each of the compounds below, state its chromatographic logP.
Please give only the number in your answer, with no unit.

Exam item: Please give the measured chromatographic logP for this compound: CCc1ccc(C(=O)NN(C(=O)c2cc(C)cc(C)c2)C(C)(C)C)c(F)c1 [RG-101523]
Marked response: 4.35

Exam item: Could you do the same for COc1cc(C(=O)N(NC(=O)c2ccc3c(c2C)OCCO3)C(C)(C)C#N)cc(OC)c1C [RG-115092] , please?
Marked response: 3.5

Exam item: What do we get for COc1ccc(C(=O)N(NC(=O)c2ccc3c(c2C)OCCO3)C(C)(C)C)c(OC)n1 [RG-115517] ?
Marked response: 3.15

Exam item: Another compound to check: COc1cc(C(=O)N(NC(=O)c2ccc3c(c2C)OCCO3)C(C)(C)C)cc(OC)c1C [RG-115637]
Marked response: 3.54

Exam item: // query: CCc1c(C(=O)NN(C(=O)c2cc(C)cc(Cl)c2)C(C)(C)C)ccc2c1OCCO2 [RG-101494]
Marked response: 4.3

Exam item: Similarly, CCc1c(OC)cccc1C(=O)NN(C(=O)c1cc(C)cc(C)c1)C(C)(C)C [RG-102240] ?
Marked response: 4.2

Exam item: Another: Cc1c(C(=O)NN(C(=O)c2cc(F)c(F)c(F)c2)C(C)(C)C)ccc2c1CCCO2 [RG-115575]
Marked response: 4.1

Exam item: Okay, and COc1cc(C(=O)N(NC(=O)c2ccc3c(c2C)OCCO3)C(C)(C)C)cc(OC)c1O [RG-115009] ?
Marked response: 1.9

Exam item: Try the compound COc1cccc(C(=O)NN(C(=O)c2cc(Cl)c(F)c(Cl)c2)C(C)(C)C)c1C [RG-101382]
Marked response: 4.4

====

biological target: GAL4 DBD-CfEcR(DEF)/VP16AD-MmRXRE (Choristoneura fumiferana, UniProt O77240); experiment: 13B3 Assay (CHO stable cell line, luciferase reporter); details: read-out: 13B3 EC50; CHO 13B3 stable cell line, luciferase reporter, 48 h; average of two wells
Endpoint Name: pEC50
Conceptually, pEC50 converts a concentration in mol/L into minus its log10.

Exam item: // pEC50 lookup, key: `C=Cc1c(OC)cccc1C(=O)NN(C(=O)c1cc(C)cc(C)c1)C(C)(C)C`
Marked response: 5.39

Exam item: Subsequent entry: `Cc1c(C(=O)NN(C(=O)c2ccc(F)cc2)C(C)(C)C)ccc2c1CCCO2`
Marked response: 6.16

Exam item: // repeat for `CCc1c(OC)cccc1C(=O)NN(C(=O)c1ccccc1[N+](=O)[O-])C(C)(C)C` and report
Marked response: 5.24

Exam item: Would you mind doing `CCc1ccc(C(=O)NN(C(=O)c2cc(OC)c(C)c(OC)c2)C(C)(C)C)c(F)c1` as well?
Marked response: 6.07

Exam item: Likewise for `CCc1ccc(C(=O)NN(C(=O)c2cccc(C)c2)C(C)(C)C)c(F)c1` ?
Marked response: 5.76

Exam item: And what about the compound `Cc1c(C(=O)NN(C(=O)c2cccc(F)c2)C(C)(C)C)ccc2c1OCCO2` ?
Marked response: 6.10

Exam item: Subsequent entry: `COc1cccc(C(=O)NN(C(=O)c2cc(C)ccc2[N+](=O)[O-])C(C)(C)C)c1C`
Marked response: 6.73

Exam item: Next entry: `Cc1cc(C)cc(C(=O)N(NC(=O)c2cccc(OC(F)(F)F)c2C)C(C)(C)C)c1`
Marked response: 6.14

Exam item: Repeat for the following compound: `COc1cc(C)ccc1C(=O)N(NC(=O)c1cccc(OC)c1C)C(C)(C)C`
Marked response: 6.47

Exam item: Try the compound `COc1cccc(C(=O)NN(C(=O)c2cc(C)cc(C)c2)C(C)(C)C)c1I`
Marked response: 4.53

Exam item: Please do the same for CCc1c(C(=O)NN(C(=O)c2ccccc2OC)C(C)(C)C)ccc2c1OCCO2 [RG-100690] as well.
Marked response: 6.57

Exam item: Quick one: `CCc1ccc(C(=O)NN(C(=O)c2ccc(OC)nc2OC)C(C)(C)C)c(F)c1`
Marked response: 6.12

Exam item: Also `Cc1cc(C)cc(C(=O)N(NC(=O)c2ccc3c(c2)CCCC3)C(C)(C)C)c1` ?
Marked response: 6.06

Exam item: Next: `Cc1ccc([N+](=O)[O-])c(C(=O)N(NC(=O)c2ccc3c(c2C)OCCO3)C(C)(C)C)c1`
Marked response: 6.49

Exam item: Another: `CCc1ccc(C(=O)NN(C(=O)c2cc(F)c(F)c(F)c2)C(C)(C)C)c(F)c1`
Marked response: 5.57
